# System: HOP-92 NSCLC
# methodSummary: NCI-60 one-dose screen, 48 h (100 = growth as untreated, 0 = no growth, -100 = all killed)
# protocolConditions: 10 µM unless noted
About 83,000 compounds went through this panel and 20% of them were active in at least one assay; those are over-represented in the sample as a whole. Activity calls are given as the source filed them. How the source made its calls: active means growth percent below 10; inactive means the rest.
measuredMetric: growth

Solved cases (2 shown):
O=C1c2ccc3c4c(ccc(c24)C(=O)N1CCCNCc1ccccc1)C(=O)N(CCCNCc1ccccc1)C3=O; -12.5% (active)
CC[C@]12C=CCN3CC[C@@]4(c5cc(NC(=O)CCC(=O)O[C@H]6CC[C@H]7[C@@H]8CCC9=CC(=O)CC[C@@H]9[C@H]8CC[C@]67C)c(OC)cc5N(C)[C@H]4[C@@](O)(C(=O)OC)[C@@H]1OC(C)=O)[C@@H]32; 64.6% (inactive)

Next item in the queue.
Input: Request - read-out growth | tested on HOP-92 NSCLC | compound COc1ccc(C(=O)CSc2nc(-c3cc(OC)ccc3OC)cc(-c3ccc(Cl)cc3)c2C#N)cc1
Output: 43.9% (inactive)
